- experiment.summary: Cytotoxicity against HEK293 cells assessed as cell viability at 6.25 uM after 66 hrs by MTT assay
- Assay type: cell-based
- condition: human, read-out: Activity

{"structure.smiles": "COc1cccc(N(C)C(=O)c2ccc(-c3ccc(C)c(C)c3)cc2)c1", "viability at 66 h, 6.25 µM / %": 34}

###

- experiment.summary: Cytotoxicity against HEK293 cells assessed as cell viability after 66 hrs by MTT assay
- Assay type: cell-based
- condition: human, read-out: LD50
parameter: CC50 at 66 h (µM)

{"compound": "Cc1ccc(Oc2ccc(C(=O)N(C)c3cccc(C)c3)cc2)cc1", "result.modifier": "=", "assay.result": 25}
{"compound": "COc1cccc(N(C)C(=O)C2CCC(c3ccc(Cl)cc3)CC2)c1 (stereo not given)", "result.modifier": ">", "assay.result": 12.5}
{"compound": "Cc1cccc(Oc2ccc(C(=O)N(C)c3cccc(C)c3)cc2)c1", "result.modifier": "=", "assay.result": 25}
{"compound": "COc1cccc(N(C)C(=O)c2ccc(-c3ccc(C)c(C)c3)cc2)c1", "result.modifier": "<", "assay.result": 6.25}
{"compound": "COc1ccc(Oc2ccc(C(=O)N(C)c3cccc(OC)c3)cc2)cc1", "result.modifier": "=", "assay.result": 25}

###

Quick list: IC50 per entry.
- test.system: 17-beta-hydroxysteroid dehydrogenase type 2 (Homo sapiens, UniProt P37059)
- Sequence (P37059 whole entry): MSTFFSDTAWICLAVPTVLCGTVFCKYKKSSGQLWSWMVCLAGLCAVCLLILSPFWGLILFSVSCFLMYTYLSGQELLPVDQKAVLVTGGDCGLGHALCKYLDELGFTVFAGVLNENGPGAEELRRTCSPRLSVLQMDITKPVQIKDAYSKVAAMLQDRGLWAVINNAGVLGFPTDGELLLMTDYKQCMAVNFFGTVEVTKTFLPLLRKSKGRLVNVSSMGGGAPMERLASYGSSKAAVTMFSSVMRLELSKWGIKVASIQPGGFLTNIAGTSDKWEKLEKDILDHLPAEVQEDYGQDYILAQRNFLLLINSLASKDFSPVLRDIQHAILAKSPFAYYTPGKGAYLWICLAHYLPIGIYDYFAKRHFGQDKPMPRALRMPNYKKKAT

{"compound": "COc1ccc(Oc2ccc(C(=O)N(C)c3cccc(OC)c3)cc2)cc1", "IC50": "310 nM"}
{"compound": "Cc1ccc(Oc2ccc(C(=O)N(C)c3cccc(C)c3)cc2)cc1", "IC50": "160 nM"}
{"compound": "Cc1cccc(Oc2ccc(C(=O)N(C)c3cccc(C)c3)cc2)c1", "IC50": "300 nM"}
{"compound": "COc1cccc(N(C)C(=O)C2CCC(c3ccc(Cl)cc3)CC2)c1 (centres undefined)", "IC50": "290 nM"}

###

- test.system: 17-beta-hydroxysteroid dehydrogenase type 1 (Homo sapiens) (UniProt P14061)
- Sequence (P14061 whole entry): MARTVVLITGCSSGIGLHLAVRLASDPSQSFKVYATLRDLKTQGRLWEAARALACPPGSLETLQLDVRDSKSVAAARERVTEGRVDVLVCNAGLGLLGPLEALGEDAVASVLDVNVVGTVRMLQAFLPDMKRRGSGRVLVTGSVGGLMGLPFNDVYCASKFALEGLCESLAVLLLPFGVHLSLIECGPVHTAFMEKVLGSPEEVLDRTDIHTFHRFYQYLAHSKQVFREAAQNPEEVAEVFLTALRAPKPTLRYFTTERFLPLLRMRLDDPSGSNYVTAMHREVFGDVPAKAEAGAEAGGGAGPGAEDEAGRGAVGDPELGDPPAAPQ
- experiment.summary: Inhibition of 17beta-HSD1 in human placental cytosolic fraction using E1/NADH as substrate/cofactor at 1 uM after 10 mins by HPLC analysis
Calls of active or inactive are those of the source. The rule behind the calls is not given here.

{"structure.smiles": "COc1cccc(N(C)C(=O)c2ccc(Oc3ccc(Cl)cc3)cc2)c1", "test.system": "17-beta-hydroxysteroid dehydrogenase type 1 (Homo sapiens) (UniProt P14061)", "inhibition": "13%"}
{"structure.smiles": "CN(C(=O)c1ccc(Oc2ccc(O)cc2)cc1)c1cccc(O)c1", "test.system": "17-beta-hydroxysteroid dehydrogenase type 1 (Homo sapiens) (UniProt P14061)", "inhibition": "inactive"}
{"structure.smiles": "Cc1cccc(N(C)C(=O)c2ccc(Oc3ccccc3)cc2)c1", "test.system": "17-beta-hydroxysteroid dehydrogenase type 1 (Homo sapiens) (UniProt P14061)", "inhibition": "inactive"}
{"structure.smiles": "COc1cccc(C(=O)N2CCN(c3ccc(C)cc3)CC2)c1", "test.system": "17-beta-hydroxysteroid dehydrogenase type 1 (Homo sapiens) (UniProt P14061)", "inhibition": "inactive"}
{"structure.smiles": "Cc1cccc(N(C)C(=O)c2ccc(Oc3ccccc3C)cc2)c1", "test.system": "17-beta-hydroxysteroid dehydrogenase type 1 (Homo sapiens) (UniProt P14061)", "inhibition": "inactive"}
{"structure.smiles": "Cc1cccc(N2CCN(S(=O)(=O)c3cccc(O)c3)CC2)c1", "test.system": "17-beta-hydroxysteroid dehydrogenase type 1 (Homo sapiens) (UniProt P14061)", "inhibition": "inactive"}
